# System: NCI-H23 lung
# Assay method text: NCI-60 one-dose screen, 48 h
# Measurement parameters: 10 µM unless noted
This is part of a sample that, as a whole, favours compounds with a hit. Of some 83,000 tested, about 20% had one in any assay. Activity calls are given as the source filed them. Rule for the calls: active = growth percent below 10; inactive = the rest.
Please reply with one of these outcomes: active, inactive

Recorded results for 5 compounds are shown here.
{"columns": ["Compound", "Class assignment"],
 "data": [
  ["CCN(CC)CCCC(C)N/C(=C1\\C(=O)NC(=O)\\C1=C(/NC(C)CCCN(CC)CC)c1cccc(OC)c1)c1cccc(OC)c1 (stereo unspecified)", "active"],
  ["COc1ccc(/C=N\\NC(=O)CN2CCN(c3cc4c(cc3F)c(=O)c(C(=O)N/N=C/c3ccc(OC)cc3)cn4C3CC3)CC2)cc1", "inactive"],
  ["CCOC(=O)Cc1cnn(C)c1NC(=O)c1ccc(Cl)cc1NC(C)=O", "inactive"],
  ["Cc1ccc(Nc2c(C(N)=O)cnc3ccc(-c4csc(N)n4)cc23)cc1", "inactive"],
  ["Cc1nc2sc(C(=O)Nc3cccc4c3OCCO4)c(N)c2cc1C(C)O (stereo unspecified)", "inactive"]
]}

input: Check the results log: what was the call for `C/C(Cc1ccc(Cl)cc1)=C(\c1ccc(OCCN2CCCCCC2)cc1)c1ccc(OC(=O)Cc2ccccc2)cc1` ?
output: inactive

input: Per the assay record, what outcome was assigned to `COc1c(Cl)cc(Cl)cc1Cl` ?
output: inactive

input: Dear all, I need the recorded test outcome for `CN1CCOCCOCCOc2ccccc2NC(=O)c2nc(cnc2N)-c2ccc(cc2)S1(=O)=O` , thank you.
output: inactive

input: Dear colleague, could you share the recorded outcome for `CC(=O)C1=C(O)C=C2Oc3c(C(=O)/C=C/c4cc(Cl)cc(Cl)c4)c(O)c(C)c(O)c3[C@]2(C)C1=O` when you have a moment?
output: active

input: Entry `CC(=O)C1=C(O)C=C2Oc3c(C(=O)/C=C/c4ccccc4)c(O)c(C)c(O)c3[C@]2(C)C1=O` : call = ?
output: inactive

input: # outcome recorded in this test, key = `COc1cccc(-n2cc(-c3nc(Nc4cc(C)[nH]n4)c4ccccc4n3)nn2)c1`
output: inactive

input: Hey, what did the test say about `CCOC(=O)c1c2ncccc2n2c(=O)n(-c3ccc(Cl)cc3)nnc12` ?
output: inactive

input: Look up the recorded call for `COCCOc1ccc(-c2nc3ccc(-c4nc5ccc(N6CCN(C)CC6)cc5[nH]4)cc3[nH]2)cc1` in this test.
output: active

input: Hi, do you know how `Nc1c(C(=O)Nc2cccc3c2OCCO3)sc2nc3c(cc12)C(=O)CCC3` came out in this test?
output: inactive

input: Would you mind telling me which call this test gave `O=C1c2cc3c(cc2-c2c1c1cc(Cl)c(Cl)cc1c(=O)n2CCCn1ccnc1)OCO3` ?
output: active

input: Can you look up the reported call for `CC/C(Cc1ccccc1)=C(\c1ccc(OCCN2CCCC2)cc1)c1ccc(OC(C)=O)cc1` for me?
output: inactive

input: Any idea what this test logged for `CN(C)CCOc1ccc(-c2nc3ccc(-c4nc5ccc(N6CCN(C)CC6)cc5[nH]4)cc3[nH]2)cc1` ?
output: inactive

input: Which outcome was assigned to `CN[C@@]12CC3(C=CC(=O)C=C3)O[C@]1(Cc1ccc(OC)cc1)N(C)C(=O)N2` in this test?
output: inactive

input: What did the test return for `CC/C=C\C[C@H](O)C/C=C1/C(=O)C=C[C@@H]1C/C=C\CCCC(=O)NC(C)C` ?
output: inactive

input: Query: recorded result category for `O=C(Nc1cccc2c1C(=O)c1cccc(Nc3cccc4c3C(=O)c3cccc(NC(=O)c5ccccc5)c3C4=O)c1C2=O)c1ccccc1` in this test
output: inactive

input: Assay outcome for `O=C(C[C@@H](C(=O)NCc1cccc(C(F)(F)F)c1)N1C(=O)[C@@H](N2C(=O)OC[C@@H]2c2ccccc2)[C@H]1/C=C/c1ccccc1)NC1CCN(Cc2ccccc2)CC1` : what was it?
output: inactive

input: Recorded test call requested for `CCCCCCCCCc1cc(CN2CCCCC2)c(O)c(CN2CCCCC2)c1`
output: inactive

input: Each compound tested received a call. Report the one for `Oc1ccc(Nc2nccc(-c3ccc4ccccc4c3)n2)cc1` .
output: inactive

input: What classification did `CN(C)c1ccc(/C=C\C2=[N+](C)c3ccccc3C2(C)C)cc1` end up with in this test?
output: active

input: Fill in: this test's call for `Cc1cccc(NC(=O)c2sc3nc4c(cc3c2N)C(=O)CCC4)c1` is ___
output: inactive
